Changes (%) of basal values, arterial mean blood pressure values, listed per item
- Tested on: arterial mean blood pressure
- measurement_protocol: Effects on arterial mean blood pressure
- Format: in vivo, mongrel adult dogs
- run_parameters: 20.0 mg/kg i.v., 5 min
test_readout: Changes (%) of basal values, arterial mean blood pressure

1) COc1ccc(C(C#N)N2CCN(CC(=O)N3CCCC3)CC2)cc1OC (stereo not shown)	-18.8
2) CCOC(=O)N1CCN(C(C#N)c2ccc(OC)c(OC)c2)CC1 (stereo not shown)	-16.9
3) COc1ccc(C(C#N)N2CCN(CC=Cc3ccccc3)CC2)cc1OC (stereo not shown)	-14.4
4) COc1ccc(C(C#N)N2CCCN(CC=Cc3ccccc3)CC2)cc1OC (stereo not shown)	-15.9

###

- System: aortic blood flow
- measurement_protocol: Effects on aortic blood flow
- Type: in vivo, mongrel adult dogs
- run_parameters: 2.0 mg/kg i.v., 5 min
Changes (%) of basal values, aortic blood flow values, listed per item
test_readout: Changes (%) of basal values, aortic blood flow

1) COc1ccc(C(C#N)N2CCN(CC=Cc3ccccc3)CC2)cc1OC (stereo not shown) [Compound D]	-0.8
2) CCOC(=O)CN1CCN(C(C#N)c2ccc(OC)c(OC)c2)CC1 (stereo not shown) [Compound B]	-1.2
3) COc1ccc(C(C#N)N2CCNCC2)cc1OC (stereo not shown) [Compound F]	-4.1

###

- Tested on: coronary sinus out flow
- measurement_protocol: Effects on coronary sinus out flow
- Format: in vivo, mongrel adult dogs
- run_parameters: 6.0 mg/kg i.v., imm.
test_readout: Changes(%) of basal values, coronary sinus out flow

1) CCOC(=O)N1CCN(C(C#N)c2ccc(OC)c(OC)c2)CC1 (centres unmarked) [Compound A]	+12.0%
2) COc1ccc(C(C#N)N2CCCN(CC=Cc3ccccc3)CC2)cc1OC (centres unmarked) [Compound E]	+51.3%
3) COc1ccc(C(C#N)N2CCNCC2)cc1OC (centres unmarked) [Compound F]	+74.5%
4) COc1ccc(C(C#N)N2CCN(CC(=O)N3CCCC3)CC2)cc1OC (centres unmarked) [Compound C]	+58.2%
5) COc1ccc(C(C#N)N2CCN(CC=Cc3ccccc3)CC2)cc1OC (centres unmarked) [Compound D]	+23.0%

###

- Tested on: arterial mean blood pressure
- measurement_protocol: Effects on arterial mean blood pressure
- Format: in vivo, mongrel adult dogs
- run_parameters: 20.0 mg/kg i.v., 1 min
Changes (%) of basal values, arterial mean blood pressure values, listed per item
test_readout: Changes (%) of basal values, arterial mean blood pressure

1) COc1ccc(C(C#N)N2CCCN(CC=Cc3ccccc3)CC2)cc1OC (stereo not shown) [Compound E]	-8.3
2) COc1ccc(C(C#N)N2CCN(CC(=O)N3CCCC3)CC2)cc1OC (stereo not shown) [Compound C]	-17.1
3) COc1ccc(C(C#N)N2CCN(CC=Cc3ccccc3)CC2)cc1OC (stereo not shown) [Compound D]	-19.7
4) CCOC(=O)N1CCN(C(C#N)c2ccc(OC)c(OC)c2)CC1 (stereo not shown) [Compound A]	-16.9

###

- Tested on: coronary sinus oxygen tension
- measurement_protocol: Effects on coronary sinus oxygen tension
- Assay type: in vivo, mongrel adult dogs
- run_parameters: 20.0 mg/kg i.v., 10 min
test_readout: Changes(%) of basal values, coronary sinus oxygen tension

1. COc1ccc(C(C#N)N2CCN(CC(=O)N3CCCC3)CC2)cc1OC (stereo not shown) [Compound C]	+70.4%
2. COc1ccc(C(C#N)N2CCCN(CC=Cc3ccccc3)CC2)cc1OC (stereo not shown) [Compound E]	+16.6%
3. COc1ccc(C(C#N)N2CCN(CC=Cc3ccccc3)CC2)cc1OC (stereo not shown) [Compound D]	+8.4%
4. CCOC(=O)N1CCN(C(C#N)c2ccc(OC)c(OC)c2)CC1 (stereo not shown) [Compound A]	+91.7%
